test system: K562 CRISPRi cells; assay: Perturb-seq pooled growth measurement (sgRNA counts, growth phenotype γ, relative activity); assay type: cell-based, human; settings: sequencing read counts; 10 days of growth (day twelve after transduction)
OBSERVED PROPERTY: Perturb-seq pooled growth sgRNA counts, d10

SUBSTANCE	MEASURED RESULT
RAN_+_131356438.23-P1P2_12: sgRNA targeting RAN, GGCGGTCGCTGCGCTTAGGT, SEQ ID NO: 73 (listed as DNA, chemistry not fully specified)	25349
non-targeting_00283: non-targeting negative control sgRNA, GGGCCGACGGATAGGAGGGA, SEQ ID NO: 166 (listed as DNA, chemistry not fully specified) [reference compound]	27936
MTOR_+_11322547.23-P1P2_06: sgRNA targeting MTOR, GGGCAGGGGGGCTGAAGCGG, SEQ ID NO: 149 (listed as DNA, chemistry not fully specified)	3174
DBR1_+_137893744.23-P1P2_07: sgRNA targeting DBR1, GTTTGCAGGGGTCTACACCC, SEQ ID NO: 80 (listed as DNA, chemistry not fully specified)	2550
ATP5E_−_57607036.23-P1P2_00: sgRNA targeting ATP5E, GGTGTCCAGGGGCACTCTGT, SEQ ID NO: 151 (listed as DNA, chemistry not fully specified)	9475
